Reference for the values: ChEMBL document CHEMBL4613313

Recorded pIC50 for the following compounds
# subjectOfTest: PBS RNA
# experiment: Binding affinity to HIV1 (+)/(-) PBS RNA sequence assessed as inhibition of HIV-1 Tat (48 to 57 residues) mediated (+)/(-)PBS RNA annealing preincubated with (+)/(-)PBS RNA for 15 mins followed by peptide addition and measured after 10 mins by RAMPA assay
# Type: nucleic-acid assay, Human immunodeficiency virus 1
Note: pIC50 values are expressed as the negative base-10 logarithm of concentration in M.

- C[C@@H](NC(=O)C(N)CCCN)C(=O)Nc1ccc2c(c1)C(=O)c1ccc(NC(=O)[C@@H](C)NC(=O)C(N)CCCN)cc1C2=O (stereo partly specified): 4.27
- C[C@H](NC(=O)C(N)CCCCN)C(=O)Nc1ccc2c(c1)C(=O)c1ccc(NC(=O)[C@H](C)NC(=O)C(N)CCCCN)cc1C2=O (stereo partly specified): 4.82
- C[C@H](NC(=O)C(N)CN)C(=O)Nc1ccc2c(c1)C(=O)c1ccc(NC(=O)[C@H](C)NC(=O)C(N)CN)cc1C2=O (stereo partly specified): 4.35

Need pIC50 of NCCCC(N)C(=O)NCC(=O)Nc1ccc2c(c1)C(=O)c1ccc(NC(=O)CNC(=O)C(N)CCCN)cc1C2=O (stereo unspecified) , thanks.
4.47

====

Recorded pIC50 for the following molecules
# subjectOfTest: PBS RNA
# experiment: Binding affinity to HIV1 (+)PBS/(-)PBS RNA sequence assessed as inhibition of recombinant full-length HIV-1 nucleocapsid protein-mediated (+)/(-)PBS RNA annealing preincubated with (+)/(-)PBS RNA for 15 mins followed by NC addition and measured after 10 mins by RAMPA assay
# Format: nucleic-acid assay, Human immunodeficiency virus 1
Note: pIC50 values are expressed as the negative base-10 logarithm of concentration in M.

Use these answered entries as a reference point.
• NCCC(N)C(=O)NCCC(=O)Nc1ccc2c(c1)C(=O)c1ccc(NC(=O)CCNC(=O)C(N)CCN)cc1C2=O (stereo not drawn) = 4.52
• NCCCC(N)C(=O)NCC(=O)Nc1ccc2c(c1)C(=O)c1ccc(NC(=O)CNC(=O)C(N)CCCN)cc1C2=O (stereo not drawn) = 4.52
• C[C@H](NC(=O)C(N)CCCCN)C(=O)Nc1ccc2c(c1)C(=O)c1ccc(NC(=O)[C@H](C)NC(=O)C(N)CCCCN)cc1C2=O (stereo partly drawn) = 4.92
• C[C@H](NC(=O)C(N)CN)C(=O)Nc1ccc2c(c1)C(=O)c1ccc(NC(=O)[C@H](C)NC(=O)C(N)CN)cc1C2=O (stereo partly drawn) = 4.27
• NCCCC(N)C(=O)NCCC(=O)Nc1ccc2c(c1)C(=O)c1ccc(NC(=O)CCNC(=O)C(N)CCCN)cc1C2=O (stereo not drawn) = 4.70
• C[C@@H](NC(=O)C(N)CCCCN)C(=O)Nc1ccc2c(c1)C(=O)c1ccc(NC(=O)[C@@H](C)NC(=O)C(N)CCCCN)cc1C2=O (stereo partly drawn) = 4.27
• NCCCCC(N)C(=O)NCC(=O)Nc1ccc2c(c1)C(=O)c1ccc(NC(=O)CNC(=O)C(N)CCCCN)cc1C2=O (stereo not drawn) = 4.64
• C[C@H](NC(=O)C(N)CCCN)C(=O)Nc1ccc2c(c1)C(=O)c1ccc(NC(=O)[C@H](C)NC(=O)C(N)CCCN)cc1C2=O (stereo partly drawn) = 4.68
• C[C@H](NC(=O)C(N)CCN)C(=O)Nc1ccc2c(c1)C(=O)c1ccc(NC(=O)[C@H](C)NC(=O)C(N)CCN)cc1C2=O (stereo partly drawn) = 4.06
• NCCCCC(N)C(=O)NCCC(=O)Nc1ccc2c(c1)C(=O)c1ccc(NC(=O)CCNC(=O)C(N)CCCCN)cc1C2=O (stereo not drawn) = 4.07

For the next question, use this molecule.
Need pIC50 of C[C@@H](NC(=O)C(N)CCCN)C(=O)Nc1ccc2c(c1)C(=O)c1ccc(NC(=O)[C@@H](C)NC(=O)C(N)CCCN)cc1C2=O (stereo partly drawn) , thanks.
4.26

====

Recorded IC50 for the following molecules
# subjectOfTest: PBS RNA
# experiment: Binding affinity to HIV1 (+)/(-) PBS RNA sequence assessed as inhibition of HIV-1 Tat (48 to 57 residues) mediated (+)/(-)PBS RNA annealing preincubated with (+)/(-)PBS RNA for 15 mins followed by peptide addition and measured after 10 mins by RAMPA assay
# Format: nucleic-acid assay, Human immunodeficiency virus 1

Need IC50 of NCCC(N)C(=O)NCCC(=O)Nc1ccc2c(c1)C(=O)c1ccc(NC(=O)CCNC(=O)C(N)CCN)cc1C2=O (configuration not stated) , thanks.
24 µM

Need IC50 of C[C@H](NC(=O)C(N)CCCN)C(=O)Nc1ccc2c(c1)C(=O)c1ccc(NC(=O)[C@H](C)NC(=O)C(N)CCCN)cc1C2=O (some centres not stated) , thanks.
16 µM

Need IC50 of NCCCCC(N)C(=O)NCC(=O)Nc1ccc2c(c1)C(=O)c1ccc(NC(=O)CNC(=O)C(N)CCCCN)cc1C2=O (configuration not stated) , thanks.
18 µM

Need IC50 of `C[C@H](NC1(N)CCNCC1)C(=O)Nc1ccc2c(c1)C(=O)c1ccc(NC(=O)[C@H](C)NC3(N)CCNCC3)cc1C2=O` , thanks.
> 200 µM

Need IC50 of `C[C@@H](NC1CCNCC1)C(=O)Nc1ccc2c(c1)C(=O)c1ccc(NC(=O)[C@@H](C)NC3CCNCC3)cc1C2=O` , thanks.
> 200 µM

Need IC50 of NCCCC(N)C(=O)NCCC(=O)Nc1ccc2c(c1)C(=O)c1ccc(NC(=O)CCNC(=O)C(N)CCCN)cc1C2=O (configuration not stated) , thanks.
20 µM

Need IC50 of C[C@@H](NC(=O)C(N)CCCCN)C(=O)Nc1ccc2c(c1)C(=O)c1ccc(NC(=O)[C@@H](C)NC(=O)C(N)CCCCN)cc1C2=O (some centres not stated) , thanks.
48 µM
